method summary: NCI Yeast Anticancer Drug Screen. Data for the mec2-1 strain (AID 157)
experimental conditions: S. cerevisiae mec2-1 strain, at 50.0 µM
Compounds without any hit were thinned out: in the full panel of roughly 79,000, 15% have a hit. The source made the active and inactive calls. Cut-off read from the data, not from the text of the source: active = growth inhibition above about 70%; inactive = the rest.
Classes used: active, inactive

1. CC(C)=C(OP1(=S)OCCN1C)C(C)(C)C(=O)N(C)C (stereo not given) | inactive
2. CN1C2C=CC1c1c(C3=NC(C)(C)CO3)cccc12 (stereo not given) | inactive
3. COc1ccc(/C=C\c2cc(OC)c(OC)c(OC)c2)cc1OC(=O)CCC(=O)O | inactive
4. NC(=NC(c1ccccc1)c1ccccc1)N[N+](=O)[O-] | inactive
5. N#C[S-].[La+3].c1cnc2c(c1)ccc1cccnc12.c1cnc2c(c1)ccc1cccnc12.c1cnc2c(c1)ccc1cccnc12 | active

----------
method summary: NCI Yeast Anticancer Drug Screen. Data for the rad50 strain (AID 155);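 note: 0% = growth of vehicle-only cultures of the same strain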
experimental conditions: S. cerevisiae rad50 strain growth inhibition; at 5.0 µM (retest, dose inferred, filed as 0.5); active compounds read high
Compounds without any hit were thinned out: in the full panel of roughly 79,000, 15% have a hit.
observed property: growth inhibition (%)

1) [Cl][Sn]([c]1ccccc1)([c]1ccccc1)[c]1ccccc1 | 99
2) S=C1NCCN1 | 1
3) O=C(c1ccccc1)c1cc(CN(CCCl)CCCl)c(O)cc1O | 0
4) Nc1cc2[nH]cnc2c([Se])n1 | -155
5) CC(C)(C)[Si](OC(=O)N(CCCl)CCCl)(c1ccccc1)c1ccccc1 | 22
6) COC12C(COC(N)=O)C3=C(C(=O)C(C)=C(NC(C)C)C3=O)N1CC1NC12 (stereo not drawn) | 5
7) CCOC(=O)c1[nH]cnc1/N=N/N(C)N | 97
8) CC[CH](C)[Sn](=[O])[c]1ccccc1 (stereo not drawn) | 15
9) CC(=O)O[C@@H]1[C@@H](O)[C@H]2O[C@@H]3C=C(C)C(=O)[C@@H](O)[C@]3(CO)[C@]1(C)[C@]21CO1 | 14
10) O=C(CC(=O)c1ccccc1)c1ccccc1.O=C(CC(=O)c1ccccc1)c1ccccc1.O=C(CC(=O)c1ccccc1)c1ccccc1.[Al] | 2
11) [C-]#[O+].[C-]#[O+].[Mo].c1ccc([PH+](CC[PH+](c2ccccc2)c2ccccc2)c2ccccc2)cc1.c1ccc([PH+](CC[PH+](c2ccccc2)c2ccccc2)c2ccccc2)cc1 | 0
12) COC12C(COC(N)=O)C3=C(C(=O)C(C)=C(N)C3=O)N1CC1C2N1C (stereo not drawn) | 10
13) C[As](C)SCCC(N)C(=O)NC(CCS[As](C)C)C(=O)O (stereo not drawn) | 30
14) CC(=O)[C-](Cl)C(C)=O.CC(=O)[C-](Cl)C(C)=O.CC(=O)[C-](Cl)C(C)=O.[Ru+3] | 16
15) CCC1(O)C(=O)OCc2c1cc1n(c2=O)Cc2cc3cc4c(cc3nc2-1)OCO4 (stereo not drawn) | 97
16) CC1(C)N=C(N)N=C(N)N1c1ccc(OCCCCNC(=O)Nc2ccc(S(=O)(=O)F)cc2)c(Cl)c1 | -3
17) CCCCCCCCc1ccc(OCCN(CCCl)CCCl)cc1 | 3
18) CC[PH+](CC)CC.[Cl][Au] | 98
19) Clc1cc[c]([Tl][c]2ccc(Cl)cc2)cc1 | 94
20) COc1cc(C2c3cc4c(cc3[C@@H](Nc3ccc([N+](=O)[O-])cc3)C3COC(=O)[C@H]23)OCO4)cc(OC)c1O (stereo partly drawn) | 96
21) Cc1cc(N(CCCl)CCCl)ccc1C1N(Cc2ccc(Cl)cc2Cl)CCCN1Cc1ccc(Cl)cc1Cl | 42
22) Nc1ccccc1C(=O)c1ccccc1 | 4
23) C[C](=O)[Hg][O]c1ccc(N=Cc2ccccc2O)cc1 | 99
24) C[AsH](C)CC[AsH](C)C.C[AsH](C)CC[AsH](C)C.C[AsH](C)CC[AsH](C)C.[Ni] | 79
25) CC1=NNC(=O)C1(Br)Br | -2
26) CCC[CH2][Sn]1([CH2]CCC)[O]CC(C)[O]1 (stereo not drawn) | 33
27) Cc1cc(N(CCCl)CCCl)ccc1C1N(Cc2ccc(N(CCCl)CCCl)cc2Cl)CCCN1Cc1ccc(N(CCCl)CCCl)cc1Cl | 81
28) CN(C=O)C(=S)[S][Sb]([S]C(=S)N(C)C=O)[S]c1nc2ccc(N=Nc3ccc(NS(=O)(=O)c4ccc(NC(=O)C(N5CC5)(N5CC5)N5CC5)cc4)cc3)cc2s1 | 4
29) O=C(N/N=C/c1cc(Br)cc(Br)c1[O-])c1ccccc1O.O=C(N/N=C/c1cc(Br)cc(Br)c1[O-])c1ccccc1O.[Mn+2] | 96
30) O=C1CCC(=O)N1SC(Cl)(Cl)Cl | 21
31) CC(CCC/C=C/CCCN(C)C(=N)N)CC(C)C1OC(=O)C(C)C(O)/C=C/C(C)C(O)C(C)C(O)C(C)C(O)CCCC(O)CC2(O)OC(CC(OC(=O)CC(=O)O)CC(O)CC(O)C(C)C(O)/C=C/C=C/C1C)CC(O)C2O (stereo not drawn) | -79
32) COc1cc(/C=C/[N+](=O)[O-])c(OC)cc1Br | 44
33) S=C=[N][Sn]([N]=C=S)([c]1ccccc1)[c]1ccccc1.c1ccc2nc(-c3ccc4ccccc4n3)ccc2c1 | 72
34) CCCCCN1C(=O)C2C(C1=O)C1(Cl)C(Cl)=C(Cl)C2(Cl)C1(Cl)Cl (stereo not drawn) | 37
35) CC(=O)NNc1ccccc1 | 6
36) O=C(O)c1cccc2cccc(C(=O)O)c12.[Hg] | 99
37) CC1=C(N2CC2)C(=O)c2nc3n(c2C1=O)CCC3OC(=O)CCl (stereo not drawn) | 28
38) CCC[CH2][Sn]1([CH2]CCC)[O]C(=O)c2ccc(C)cc2[O]1 | 79
